test system: T-47D breast; assay: NCI-60 one-dose screen, 48 h (100 = growth as untreated, 0 = no growth, -100 = all killed); details: 10 µM unless noted
Compounds without any hit were thinned out: in the full panel of roughly 83,000, 20% have a hit.
parameter measured: growth (%)
Express it in %; write the number only.

Recorded results for 2 molecules are shown here.
smiles code	growth, %
CC1(C)CC[C@]2(C(=O)N3CCOCC3)CC[C@]3(C)C(=CC[C@@H]4[C@@]5(C)C/C(=C/c6ccco6)C(=O)C(C)(C)[C@@H]5CC[C@]43C)[C@@H]2C1	75.7
CN1c2ccccc2Sc2cc(C=C(C#N)C#N)ccc21	92.6

With those in mind, consider the next molecule.
## Input Bench note: what growth did `CCN(CC)CCn1c2ccc(O)cc2c2sc3cc(OC)ccc3c(=O)c21` show?
## Output 59.3

====

test system: A549/ATCC NSCLC; experiment: NCI-60 one-dose screen, 48 h (100 = growth as untreated, 0 = no growth, -100 = all killed); settings: 10 µM unless noted
The panel holds about 83,000 compounds, 20% with a hit somewhere; the sample as a whole holds those more often.
parameter measured: growth (%)
Express it in %; write the number only.

Recorded results for 3 molecules are shown here.
molecule	assay system	measured result
CC1(C)[C@@H](O)CC[C@]2(C)[C@H]3CC[C@@H]4[C@H]5[C@H](C(=O)/C=C\c6ccc([N+](=O)[O-])cc6)CC[C@]5(O)CC[C@@]4(C)[C@]3(C)CC[C@@H]12	A549/ATCC NSCLC	61.8
COc1cc2c(cc1OC)C(Sc1ccc(C)cc1)c1c(nc(N)c(C#N)c1N)O2 (centres undefined)	A549/ATCC NSCLC	-38
C=C(C)[C@@H]1CC[C@]2(COCCCNCCC#N)CC[C@]3(C)[C@H](CC[C@@H]4[C@@]5(C)CC[C@H](OCCCNCCC#N)C(C)(C)[C@@H]5CC[C@]43C)[C@@H]12	A549/ATCC NSCLC	59.2

## Input Bench note: what growth did `C#C[C@]1(O)CC[C@H]2[C@@H]3CC=C4c5sc(-c6cccc(O)c6)nc5CC[C@]4(C)[C@H]3CC[C@@]21C` show?
## Output -16.2

## Input Bench note: what growth did COc1cc2nc(Cl)nc(Nc3cccc(C4=Nc5c(N)nc(N)nc5NC(c5ccc(Br)cc5)C4)c3)c2cc1OC (centres undefined) show?
## Output 55.9

====

// growth lookup, one value per entry
tested on: MCF7 breast; assay: NCI-60 one-dose screen, 48 h (100 = growth as untreated, 0 = no growth, -100 = all killed); conditions: 10 µM unless noted
Compounds without any hit were thinned out: in the full panel of roughly 83,000, 20% have a hit.
Express it in %; write the number only.

Recorded results for 4 compounds are shown here.
compound	growth, %
C=C(C)[C@@H]1CC[C@]2(COC)CC[C@]3(C)[C@H](CC[C@@H]4[C@@]5(C)CCCNC(C)(C)[C@@H]5CC[C@]43C)[C@@H]12	7.62
O=C(CCn1c[n+](CC(=O)c2ccc(-c3ccccc3)cc2)c2ccccc21)Nc1cccc2cccnc12	19.8
Fc1ccc(-c2cc3nc(C(Cl)Cl)nc(-c4ccc(F)cc4)n3n2)cc1	24.2
CNC(=O)c1cc(-c2ccc(NC(=S)Nc3cc(C(F)(F)F)cc(C(F)(F)F)c3)cc2)nc2cccnc12	59.6

## Input Bench note: what growth did `CNC(=O)c1cc(-c2ccc(NS(=O)(=O)c3ccc(C)cc3)cc2)nc2cccnc12` show?
## Output 72.9

## Input Bench note: what growth did CC(=O)N1C(=S)NC(=O)C1CC(C)C (configuration not stated) show?
## Output 97.7
